Each recorded value in this set is attributed to paper PMC12087296.

- Target of assay: TlpQ (Pseudomonas aeruginosa)
- Sequence (Q9I0I4 33-363 limits assumed): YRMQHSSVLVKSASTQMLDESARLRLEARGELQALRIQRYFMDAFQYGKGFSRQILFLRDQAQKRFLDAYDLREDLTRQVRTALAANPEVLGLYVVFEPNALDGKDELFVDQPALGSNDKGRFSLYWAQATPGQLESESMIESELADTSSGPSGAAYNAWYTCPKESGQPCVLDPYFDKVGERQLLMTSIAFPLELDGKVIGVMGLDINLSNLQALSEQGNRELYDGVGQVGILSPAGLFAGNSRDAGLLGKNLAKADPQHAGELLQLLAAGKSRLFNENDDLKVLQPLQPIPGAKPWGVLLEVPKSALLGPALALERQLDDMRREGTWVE
- Procedure details: isothermal titration calorimetry, […]°C
- Format: binding
Test readout: pKd
Friendly reminder that pKd comes from taking -log10 of the concentration in mol/L.

Ask: Quick check: pKd of "NCCc1ccc(O)c(O)c1" ?
Reply: 3.86
